- Tested on: 786-0 renal
- Measurement Protocol: NCI-60 one-dose screen, 48 h
- Condition Details: 10 µM unless noted
This is part of a sample that, as a whole, favours compounds with a hit. Of some 83,000 tested, about 20% had one in any assay. The source made the active and inactive calls. Rule for the calls: active = growth percent below 10; inactive = the rest.
Outcomes you can answer with include only these: 1 for active, 0 for inactive

// below: answered molecules
{"columns": ["Molecule", "Class Name"],
 "data": [
  ["CCNC(=O)Oc1ccc(/C(=C(/C)c2ccccc2)c2ccc(OCCN3CCCCCC3)cc2)cc1", 1],
  ["CC(C)(C)c1ccc(CC(=O)Nc2sc3c(c2C(N)=O)CCC(=O)C3)cc1", 0],
  ["NC(=O)c1cccc(C#CCNC[C@H]2C[C@@H](n3ccc4c(Cl)ncnc43)[C@H](O)[C@@H]2O)c1", 0]
]}

Assay outcome for NS(=O)(=O)c1ccc(Nc2nc(SCC(=O)c3ccc(Cl)cc3)nc3c2CCCC3)cc1 : what was it?
0

Assay outcome for Nc1cc(F)ccc1NC(=O)c1ccc(NC(=O)C/C=C/c2cccnc2)cc1 : what was it?
0

Assay outcome for O=C(Cn1cc[n+](CC(=O)c2ccc(-c3ccccc3)cc2)c1)Nc1cccc2cccnc12 : what was it?
0

Assay outcome for Nc1nc(-c2cccc([N+](=O)[O-])c2)c(N=Nc2cccc([N+](=O)[O-])c2)s1 : what was it?
1
